Recorded values, source patent US10858356B2.

- experimental target: human GLP1R (Homo sapiens (Human), UniProt P43220)
- Sequence (P43220 24-463): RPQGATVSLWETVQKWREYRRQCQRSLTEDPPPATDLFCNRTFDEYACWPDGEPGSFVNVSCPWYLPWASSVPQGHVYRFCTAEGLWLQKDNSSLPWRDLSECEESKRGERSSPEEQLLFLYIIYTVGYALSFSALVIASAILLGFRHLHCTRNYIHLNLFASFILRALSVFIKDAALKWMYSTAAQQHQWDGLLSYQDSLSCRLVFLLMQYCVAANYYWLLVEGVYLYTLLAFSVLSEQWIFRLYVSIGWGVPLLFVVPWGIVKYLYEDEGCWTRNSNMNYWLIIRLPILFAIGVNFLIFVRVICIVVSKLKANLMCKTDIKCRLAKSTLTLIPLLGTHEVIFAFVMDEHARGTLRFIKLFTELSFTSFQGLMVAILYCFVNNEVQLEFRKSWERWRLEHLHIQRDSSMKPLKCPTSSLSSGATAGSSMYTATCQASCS
- measurement description: In vitro cAMP signal activation in human GLP1R stably-expressing cell line (hGLP1R-HEK293)
- settings: cAMP concentration in hGLP1R-HEK293; 100% = 1 nM human GLP-1 (7-37)
metric name: EC50 (nM)

molecule: Cc1cc(-n2nc3c(c2-n2ccn(-c4ccc5c(cnn5C)c4)c2=O)[C@H](C)N(C(=O)c2cc4cc(C5CCOCC5)ccc4n2[C@@]2(c4noc(=O)[nH]4)C[C@@H]2C)[C@H](C)C3)cc(C)c1F
metric name: EC50
measured value: 2.4
//
molecule: COCCn1ncc2c(F)c(-n3ccn(-c4c5c(nn4-c4cc(C)c(F)c(C)c4)CCN(C(=O)c4cc6cc([C@H]7CCOC(C)(C)C7)ccc6n4[C@@]4(c6noc(=O)[nH]6)C[C@@H]4C)[C@H]5C)c3=O)ccc21
metric name: EC50
measured value: 2.1
//
molecule: COCCN(C(C)=O)C12C3C4C1C1C2C3C41n1ccn(-c2c3c(nn2-c2cc(C)c(F)c(C)c2)CCN(C(=O)c2cc4cc(C5CCOCC5)ccc4n2[C@@]2(c4noc(=O)[nH]4)C[C@@H]2C)[C@H]3C)c1=O (stereo partly shown)
metric name: EC50
measured value: 8.1
//
molecule: Cc1cc(-n2nc3c(c2-n2ccn(-c4ccc5c(cnn5CC(F)(F)F)c4F)c2=O)[C@H](C)N(C(=O)c2cc4cc([C@H]5CCOC(C)(C)C5)ccc4n2[C@@]2(c4noc(=O)[nH]4)C[C@@H]2C)CC3)cc(C)c1F
metric name: EC50
measured value: 3.2

###

- experimental target: UniProt:P43220
- measurement description: In vitro cAMP signal activation in human GLP1R stably-expressing cell line (hGLP1R-HEK293)
- settings: cAMP concentration in hGLP1R-HEK293; 100% = 1 nM human GLP-1 (7-37)
pEC50: −log10 of the molar value.

item smiles: COCCn1ncc2cc(-n3ccn(-c4c5c(nn4-c4cc(C)c(F)c(C)c4)CCN(C(=O)c4cc6cc(C7CCOCC7)cnc6n4[C@@]4(c6noc(=O)[nH]6)C[C@@H]4C)C5)c3=O)ccc21
experimental target: UniProt:P43220
pEC50: 8.47

item smiles: CCc1nccc(-c2ccc3c(c2)cc(C(=O)N2CCc4nn(-c5cc(C)c(F)c(C)c5)c(-n5ccn(-c6ccc7c(cnn7C)c6)c5=O)c4[C@@H]2C)n3[C@@]2(c3noc(=O)[nH]3)C[C@@H]2C)c1C
experimental target: UniProt:P43220
pEC50: 8.60

item smiles: COCCn1ncc2c(F)c(-n3ccn(-c4c5c(nn4-c4cc(C)c(Cl)c(C)c4)CCN(C(=O)c4cc6cc(C7CCOCC7)ccc6n4[C@@]4(c6noc(=O)[nH]6)C[C@@H]4C)[C@H]5C)c3=O)ccc21
experimental target: UniProt:P43220
pEC50: 8.80

item smiles: Cc1cc(-n2nc3c(c2-n2ccn(-c4ccc5c(cnn5C)c4)c2=O)CN(C(=O)c2cc4cc([C@H]5CCOC(C)(C)C5)ccc4n2[C@@]2(c4noc(=O)[nH]4)C[C@@H]2C)CC3)cc(C)c1F
experimental target: UniProt:P43220
pEC50: 8.82

item smiles: Cc1cc(-n2nc3c(c2-n2ccn(-c4ccc5c(cnn5C)c4)c2=O)CN(C(=O)c2cc4cc(C5CCOCC5)ccc4n2[C@@]2(c4noc(=O)[nH]4)C[C@@H]2C)CC3)cc(C)c1F
experimental target: UniProt:P43220
pEC50: 8.41

###

The following molecules are listed with their measured EC50 values.
- experimental target: human GLP1R (Homo sapiens (Human))
- measurement description: In vitro cAMP signal activation in human GLP1R stably-expressing cell line (hGLP1R-HEK293)
- settings: cAMP concentration in hGLP1R-HEK293; 100% = 1 nM human GLP-1 (7-37)

item smiles: Cc1cc(-n2nc3c(c2-n2ccn(-c4ccc5c(cnn5CC(F)(F)F)c4F)c2=O)[C@H](C)N(C(=O)c2cc4cc([C@H]5CCOC(C)(C)C5)ccc4n2[C@@]2(c4noc(=O)[nH]4)C[C@@H]2C)CC3)cc(C)c1Cl
EC50 (nM): 1.9
--
item smiles: CC[C@H]1CN(c2ccc3c(c2)cc(C(=O)N2CCc4nn(-c5cc(C)c(F)c(C)c5)c(-n5ccn(-c6ccc7c(cnn7C)c6)c5=O)c4C2)n3[C@@]2(c3noc(=O)[nH]3)C[C@@H]2C)CCO1
EC50 (nM): 2.9
--
item smiles: Cc1cc(-n2nc3c(c2-n2ccn(-c4ccc5c(c4)CC(=O)N(C)C5)c2=O)[C@H](C)N(C(=O)c2cc4cc([C@H]5CCOC(C)(C)C5)ccc4n2[C@@]2(c4noc(=O)[nH]4)C[C@@H]2C)CC3)cc(C)c1F
EC50 (nM): 1
--
item smiles: Cc1cc(-n2nc3c(c2-n2ccn(-c4ccc5c(cnn5C)c4F)c2=O)[C@H](C)N(C(=O)c2cc4cc([C@H]5CCOC(C)(C)C5)ccc4n2[C@@]2(c4noc(=O)[nH]4)C[C@@H]2C)CC3)cc(C)c1Cl
EC50 (nM): 3.5

###

- measurement description: Pharmacokinetics after oral administration
- Format: in vivo, cynomolgus monkey
- settings: male, cynomolgus monkey, plasma; 0.45 mg/kg oral, calcium salt hydrate crystal (Sample 162a) suspension, n=2

item smiles: Cc1cc(-n2nc3c(c2-n2ccn(-c4ccc5c(cnn5C)c4F)c2=O)[C@H](C)N(C(=O)c2cc4cc([C@H]5CCOC(C)(C)C5)ccc4n2[C@@]2(c4noc(=O)[nH]4)C[C@@H]2C)CC3)cc(C)c1F
Tmax / h: 2

###

The following compounds are listed with their measured EC50 values.
- experimental target: human GLP1R (Homo sapiens (Human))
- measurement description: In vitro cAMP signal activation in human GLP1R stably-expressing cell line (hGLP1R-HEK293)
- settings: cAMP concentration in hGLP1R-HEK293; 100% = 1 nM human GLP-1 (7-37)
metric name: EC50 (nM)

compound: COCCn1ncc2cc(-n3ccn(-c4c5c(nn4-c4cc(C)c(F)c(C)c4)CCN(C(=O)c4cc6cc(N7CCOC(C)(C)C7)ccc6n4[C@@]4(c6noc(=O)[nH]6)C[C@@H]4C)C5)c3=O)ccc21
experimental target: human GLP1R (Homo sapiens (Human))
measured value: 3.2
//
compound: Cc1cc(-n2nc3c(c2-n2ccn(-c4ccc5[nH]ncc5c4)c2=O)[C@H](C)N(C(=O)c2cc4cc(C5CCOC(C)(C)C5)ccc4n2[C@@]2(c4noc(=O)[nH]4)C[C@@H]2C)CC3)cc(C)c1F (stereo in doubt)
experimental target: human GLP1R (Homo sapiens (Human))
measured value: 3

###

- experimental target: human GLP1R (Homo sapiens (Human), UniProt P43220)
- measurement description: In vitro cAMP signal activation in human GLP1R stably-expressing cell line (hGLP1R-HEK293)
- settings: cAMP concentration in hGLP1R-HEK293; 100% = 1 nM human GLP-1 (7-37)

compound: COCCn1ncc2cc(-n3ccn(-c4c5c(nn4-c4cc(C)c(F)c(C)c4)CCN(C(=O)c4cc6cc(C7CCOCC7)cc(F)c6n4[C@@]4(c6noc(=O)[nH]6)C[C@@H]4C)[C@H]5C)c3=O)ccc21
EC50 (nM): 1.1
//
compound: Cc1cc(-n2nc3c(c2-n2ccn(-c4ccc5c(cnn5C)c4)c2=O)CN(C(=O)c2cc4cc(C5CCOCC5)ccc4n2[C@@]2(c4noc(=O)[nH]4)C[C@@H]2CO)CC3)cc(C)c1F
EC50 (nM): 2.4
//
compound: Cc1cc(-n2ccn(-c3c4c(nn3-c3cc(C)c(F)c(C)c3)CCN(C(=O)c3cc5cc(C6CCOCC6)ccc5n3[C@@]3(c5noc(=O)[nH]5)C[C@@H]3C)[C@H]4C)c2=O)ccc1-c1cc(N(C)C)ncn1
EC50 (nM): 4
//
compound: Cc1cc(-n2nc3c(c2-n2ccn(-c4ccc5c(cnn5[C@H]5CCOC5)c4)c2=O)[C@H](C)N(C(=O)c2cc4cc(-c5ccnc(C)c5F)ccc4n2[C@@]2(c4noc(=O)[nH]4)C[C@@H]2C)CC3)cc(C)c1F
EC50 (nM): 2.3
//
compound: COCCCN(C(C)=O)c1ccc(-n2ccn(-c3c4c(nn3-c3cc(C)c(F)c(C)c3)CCN(C(=O)c3cc5cc(C6CCOCC6)ccc5n3[C@@]3(c5noc(=O)[nH]5)C[C@@H]3C)C4)c2=O)cc1OC
EC50 (nM): 1.8
//
compound: CCS(=O)(=O)c1ccc(-n2ccn(-c3c4c(nn3-c3cc(C)c(F)c(C)c3)CCN(C(=O)c3cc5cc(C6CCOCC6)ccc5n3[C@@]3(c5noc(=O)[nH]5)CC3C)[C@H]4C)c2=O)cc1 (stereo in doubt)
EC50 (nM): 1.6
//
compound: Cc1cc(-n2nc3c(c2-n2ccn(-c4ccc5c(cnn5[C@@H]5CCOC5)c4)c2=O)[C@H](C)N(C(=O)c2cc4cc(C5CCOCC5)cc(F)c4n2[C@@]2(c4noc(=O)[nH]4)C[C@@H]2C)CC3)cc(C)c1F
EC50 (nM): 2
//
compound: Cc1cc(-n2nc3c(c2-n2ccn(-c4ccc5c(cnn5CC(F)(F)F)c4F)c2=O)[C@H](C)N(C(=O)c2cc4cc(C5CCOCC5)ccc4n2[C@@]2(c4noc(=O)[nH]4)C[C@@H]2C)CC3)cc(C)c1F
EC50 (nM): 1.9
//
compound: Cc1cc(-n2nc3c(c2-n2ccn(-c4ccc5c(cnn5C)c4)c2=O)CN(C(=O)c2cc4cc(C5CCOCC5)ccc4n2[C@@]2(c4noc(=O)[nH]4)C[C@@H]2C)CC3)cc(C)c1Cl
EC50 (nM): 3.7
//
compound: Cc1cc(-n2nc3c(c2-n2ccn(-c4ccc5c(cnn5C)c4)c2=O)[C@H](C)N(C(=O)c2cc4cc([C@H]5CCOC(C)(C)C5)ccc4n2[C@@]2(c4noc(=O)[nH]4)C[C@@H]2C)CC3)cc(C)c1F
EC50 (nM): 0.81
//
compound: Cc1cc(-n2nc3c(c2-n2ccn(-c4ccc5c(cnn5CC(C)(C)O)c4F)c2=O)[C@H](C)N(C(=O)c2cc4cc([C@H]5CCOC(C)(C)C5)ccc4n2[C@@]2(c4noc(=O)[nH]4)C[C@@H]2C)CC3)cc(C)c1F
EC50 (nM): 1.7
//
compound: Cc1cc(-n2nc3c(c2-n2ccn(-c4ccc5c(cnn5C)c4F)c2=O)[C@H](C)N(C(=O)c2cc4cc([C@H]5CCOC(C)(C)C5)ccc4n2[C@@]2(c4noc(=O)[nH]4)C[C@@H]2C)CC3)ccc1F
EC50 (nM): 2.8
//
compound: COc1nccc(-c2cc3cc(C(=O)N4CCc5nn(-c6cc(C)c(F)c(C)c6)c(-n6ccn(-c7ccc8c(cnn8C)c7)c6=O)c5[C@@H]4C)n([C@@]4(c5noc(=O)[nH]5)C[C@@H]4C)c3cc2F)c1C
EC50 (nM): 6.2
//
compound: Cc1cc(-n2nc3c(c2-n2ccn(-c4ccc5c(cnn5CC(F)(F)F)c4)c2=O)CN(C(=O)c2cc4cc(C5CCOCC5)ccc4n2[C@@]2(c4noc(=O)[nH]4)C[C@@H]2C)CC3)cc(C)c1F
EC50 (nM): 2.8
//
compound: Cc1cc(-n2nc3c(c2-n2ccn(-c4ccc5c(cnn5C)c4)c2=O)[C@H](C)N(C(=O)c2cc4cc(-c5ccnc(N(C)C)c5C)ccc4n2[C@@]2(c4noc(=O)[nH]4)C[C@@H]2C)CC3)cc(C)c1F
EC50 (nM): 2.2
